B1: Caulobacter ParB omega fusion; a variant is named by its letters at X, in order, B8GW30 (parent)
chain: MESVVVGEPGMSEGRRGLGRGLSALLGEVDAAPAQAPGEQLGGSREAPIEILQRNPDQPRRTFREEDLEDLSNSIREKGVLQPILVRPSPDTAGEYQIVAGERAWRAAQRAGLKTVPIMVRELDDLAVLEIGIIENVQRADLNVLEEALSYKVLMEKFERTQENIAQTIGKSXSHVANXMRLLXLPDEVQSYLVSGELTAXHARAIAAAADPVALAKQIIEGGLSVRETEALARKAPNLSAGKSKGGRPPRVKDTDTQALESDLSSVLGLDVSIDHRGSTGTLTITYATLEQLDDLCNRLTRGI

Variants of: B1
assay_info: one-hybrid fitness for binding parS DNA (scaled: cognate 1, non-cognate 0); higher = stronger binding
condition_set: with parS DNA site
The full ranking holds about 81,000 sequences; the median of “one-hybrid fitness for binding parS DNA” is about -0.17, and the highest 2% start at about 0.51. Many of the other results were omitted from the sample, so the highest values are more common in it than they were.
Recorded measurements of one-hybrid fitness for binding parS DNA, one per entry

Previously resolved entries follow.
[[record]]
sequence_change = "ALEW"
quantity_kind = "one-hybrid fitness for binding parS DNA"
measured_result = "≤ 0.2"

[[record]]
sequence_change = "NLSL"
quantity_kind = "one-hybrid fitness for binding parS DNA"
measured_result = "≤ 0.2"

[[record]]
sequence_change = "VDRK"
quantity_kind = "one-hybrid fitness for binding parS DNA"
measured_result = "≤ 0.2"

[[record]]
sequence_change = "TGKS"
quantity_kind = "one-hybrid fitness for binding parS DNA"
measured_result = "≤ 0.2"

[[record]]
sequence_change = "ASIT"
quantity_kind = "one-hybrid fitness for binding parS DNA"
measured_result = "≤ 0.2"

[[record]]
sequence_change = "RRPA"
quantity_kind = "one-hybrid fitness for binding parS DNA"
measured_result = 0.574

[[record]]
sequence_change = "YMRM"
quantity_kind = "one-hybrid fitness for binding parS DNA"
measured_result = "≤ 0.2"

[[record]]
sequence_change = "RMDK"
quantity_kind = "one-hybrid fitness for binding parS DNA"
measured_result = "≤ 0.2"


Dear colleague, I am looking for the recorded one-hybrid fitness for binding parS DNA of the following variant: RMNC
0.969

Dear colleague, I am looking for the recorded one-hybrid fitness for binding parS DNA of the following variant: NRIA
≤ 0.2

Dear colleague, I am looking for the recorded one-hybrid fitness for binding parS DNA of the following variant: RMNN
0.467

Dear colleague, I am looking for the recorded one-hybrid fitness for binding parS DNA of the following variant: RRIA
0.828

Dear colleague, I am looking for the recorded one-hybrid fitness for binding parS DNA of the following variant: LTSY
≤ 0.2

Dear colleague, I am looking for the recorded one-hybrid fitness for binding parS DNA of the following variant: KHHT
≤ 0.2
